Here the recorded concentration at 1 h is given for each entry.
- ASSAY_METHOD_TEXT: Plasma drug levels one hour post dose in rat (PO dose)
- Format: ADME, organism-based
- PROTOCOL_CONDITIONS: read-out: Plasma level
EXPERIMENTAL_READOUT: concentration at 1 h (µM)

{"MOLECULE": "CCSC(=O)N(O)C(C)c1cc2ccccc2s1 (centres undefined)", "MEASURE_UNIT": "µM", "READOUT_VALUE": 4}
{"MOLECULE": "CCCCNC(=O)N(O)C(C)c1cc2ccccc2s1 (centres undefined)", "MEASURE_UNIT": "µM", "READOUT_VALUE": 1.7}
{"MOLECULE": "CC(c1ccc(-c2ccccn2)s1)N(O)C(N)=O (centres undefined)", "MEASURE_UNIT": "µM", "READOUT_VALUE": 78}
{"MOLECULE": "CC(c1cc2ccccc2s1)N(O)C(=O)NCC(=O)O (centres undefined)", "MEASURE_UNIT": "µM", "READOUT_VALUE": 122}

All figures here come from ChEMBL document CHEMBL1130069.
